# System: B. subtilis DSM 29870
# Assay type: cell-based, Bacillus subtilis
# Condition summary: Bacillus subtilis, DSM29870; biological replicate MIC 3; 37° C., 20-24 h; read-out: MIC 3
Hi! Could you tag entries with MIC below 0.2 µg/mL as class 1, and those at or above as class 0? Much appreciated.

{"Mol": "CC[C@H]1OC(=O)[C@H](C)[C@@H](O[C@H]2C[C@@](C)(OC)[C@@H](O)[C@H](C)O2)[C@H](C)[C@@H](O[C@@H]2O[C@H](C)C[C@H](N(C)C)[C@H]2O)[C@](C)(O)C[C@@H](C)C(=O)[C@H](C)[C@@H](O)[C@]1(C)O", "Assigned category": "class 1"}
{"Mol": "[H]/N=C(/N)N[C@H]1[C@H](O)[C@@H](O)[C@H](O[C@@H]2O[C@@H](C)[C@](O)(C=O)[C@H]2O[C@@H]2O[C@@H](CO)[C@H](O)[C@@H](O)[C@@H]2NC)[C@@H](N/C(N)=N\\[H])[C@@H]1O", "Assigned category": "class 0"}
{"Mol": "CN(C)[C@@H]1C(O)=C(C(N)=O)C(=O)[C@@]2(O)C(O)=C3C(=O)c4c(O)cccc4[C@@](C)(O)[C@H]3C[C@@H]12", "Assigned category": "class 0"}
{"Mol": "O=C(N[C@H](CO)[C@H](O)c1ccc([N+](=O)[O-])cc1)C(Cl)Cl", "Assigned category": "class 0"}
{"Mol": "CCC[C@@H]1C[C@@H](C(=O)N[C@@H]([C@H]2O[C@H](SC)[C@H](O)[C@@H](O)[C@H]2O)[C@H](C)Cl)N(C)C1", "Assigned category": "class 0"}
{"Mol": "NC[C@H]1O[C@H](O[C@H]2[C@H](O)[C@@H](O[C@H]3O[C@H](CO)[C@@H](O)[C@H](N)[C@H]3O)[C@H](N)C[C@@H]2N)[C@H](O)[C@@H](O)[C@@H]1O", "Assigned category": "class 0"}

###

# Tested on: B. subtilis DSM 29871
# Type: cell-based, Bacillus subtilis
# Condition summary: Bacillus subtilis, DSM29871; biological replicate MIC 2; 37° C., 20-24 h; read-out: MIC 2
This section presents molecules with their documented MIC values.

{"Molecule": "CC[C@H]1OC(=O)[C@H](C)[C@@H](O[C@H]2C[C@@](C)(OC)[C@@H](O)[C@H](C)O2)[C@H](C)[C@@H](O[C@@H]2O[C@H](C)C[C@H](N(C)C)[C@H]2O)[C@](C)(O)C[C@@H](C)C(=O)[C@H](C)[C@@H](O)[C@]1(C)O [Erythromycin]", "MIC / µg/mL": 0.125}
{"Molecule": "O=C(N[C@H](CO)[C@H](O)c1ccc([N+](=O)[O-])cc1)C(Cl)Cl [Chloramphenicol]", "MIC / µg/mL": 4}
{"Molecule": "CN(C)[C@@H]1C(O)=C(C(N)=O)C(=O)[C@@]2(O)C(O)=C3C(=O)c4c(O)cccc4[C@@](C)(O)[C@H]3C[C@@H]12 [Tetracycline]", "MIC / µg/mL": 4}
{"Molecule": "NC[C@H]1O[C@H](O[C@H]2[C@H](O)[C@@H](O[C@H]3O[C@H](CO)[C@@H](O)[C@H](N)[C@H]3O)[C@H](N)C[C@@H]2N)[C@H](O)[C@@H](O)[C@@H]1O [Kanamycin]", "MIC / µg/mL": 1}
{"Molecule": "CCC[C@@H]1C[C@@H](C(=O)N[C@@H]([C@H]2O[C@H](SC)[C@H](O)[C@@H](O)[C@H]2O)[C@H](C)Cl)N(C)C1 [Clindamycin]", "MIC / µg/mL": 0.25}
{"Molecule": "[H]/N=C(/N)N[C@H]1[C@H](O)[C@@H](O)[C@H](O[C@@H]2O[C@@H](C)[C@](O)(C=O)[C@H]2O[C@@H]2O[C@@H](CO)[C@H](O)[C@@H](O)[C@@H]2NC)[C@@H](N/C(N)=N\\[H])[C@@H]1O [Streptomycin]", "MIC / µg/mL": 16}

Cited source: patent US11331351B2
